METHOD NOTES: reduction of polyQ htt aggregates in cells – imaging, exon1htt(103Q)mCFP cells, high-content imaging, primary screen (AID 483);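 note: compound exposure lasted 3 days before fixation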
MEASUREMENT CONTEXT: exon1htt(103Q)mCFP cell line, aggregate imaging, at 2 µM
Calls of active or inactive are those of the source.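 Rule for the calls: active = visual image review flags a hit and inhibition of aggregation exceeds 20%; inconclusive = visual hit but inhibition at or below 20%; inactive = no hit on visual image review.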
Log the outcome using a class from true = active, false = inactive

Task item: GET /call?item= O=C(CSc1ncnc2c1oc1ccccc12)NCc1ccco1 returns the recorded outcome of this test.
Reply: false

Task item: GET /call?item= CCCNc1nc2c(c(=O)n(C)c(=O)n2C)n1Cc1cccc(C)c1 returns the recorded outcome of this test.
Reply: false

Task item: GET /call?item= Cc1nc(NC(=O)c2csc3ccccc23)sc1C returns the recorded outcome of this test.
Reply: false

Task item: GET /call?item= COc1ccc(-c2nnc(SCC(=O)c3cc(C)n(Cc4cccs4)c3C)o2)cc1 returns the recorded outcome of this test.
Reply: false

Task item: GET /call?item= CCNCC(O)COCC(O)CNCC (stereo not drawn) returns the recorded outcome of this test.
Reply: false

Task item: GET /call?item= CC(C)(NC(=O)N1CCCC1)c1cccc(C(C)(C)NC(=O)N2CCCC2)c1 returns the recorded outcome of this test.
Reply: true

Task item: GET /call?item= CC(C)(C)C(=O)NC1CCN(C(=O)N2CCCC2)CC1 returns the recorded outcome of this test.
Reply: false

Task item: GET /call?item= Cc1ccc(N=Cc2ccc[nH]2)c(O)c1 returns the recorded outcome of this test.
Reply: false

Task item: GET /call?item= C=CCNC(=O)CSc1nc2sc(C)c(C)c2c(=O)[nH]1 returns the recorded outcome of this test.
Reply: false

Task item: GET /call?item= Cc1nn(C)c(C)c1NC(=O)CSc1nc(Cc2ccccc2)nc2c1cnn2-c1ccccc1 returns the recorded outcome of this test.
Reply: false

Task item: GET /call?item= CCc1nc(SCC(=O)NCc2ccco2)c2c3c(sc2n1)CCCC3 returns the recorded outcome of this test.
Reply: false

Task item: GET /call?item= CCN(CC)c1ccc(-c2c(C#N)c(N)nc(OC)c2C#N)cc1 returns the recorded outcome of this test.
Reply: false

Task item: GET /call?item= CCc1nnc(SCc2cn3c(C)cc(C)nc3n2)n1N returns the recorded outcome of this test.
Reply: false

Task item: GET /call?item= CC(C)(C)C(=O)/C=C(\N)c1ccccn1 returns the recorded outcome of this test.
Reply: false

Task item: GET /call?item= O=C(NC1CCCCC1)n1c(=O)oc2ccc(Cl)cc21 returns the recorded outcome of this test.
Reply: false

Task item: GET /call?item= O=C1C2CC=C(Cl)CC2C(=O)N1c1ncn[nH]1 (stereo not drawn) returns the recorded outcome of this test.
Reply: false

Task item: GET /call?item= COC(=O)Nc1nc2c(C)cccc2s1 returns the recorded outcome of this test.
Reply: false

Task item: GET /call?item= CC(=O)c1ccccc1NS(=O)(=O)c1c(C)nn(-c2ccccc2)c1C returns the recorded outcome of this test.
Reply: false

Task item: GET /call?item= O=C(c1ccco1)N(Cc1cc2ccccc2[nH]c1=O)C1CCCCC1 returns the recorded outcome of this test.
Reply: false

Task item: GET /call?item= O=C1CN(c2nc3ccccc3n3cnnc23)CC(=O)N1CCc1ccccc1 returns the recorded outcome of this test.
Reply: false

Task item: GET /call?item= CCc1nn2c(N3CCOCC3)cc(C)nc2c1-c1ccc(F)cc1 returns the recorded outcome of this test.
Reply: false

Task item: GET /call?item= COc1cc(C2c3c(n[nH]c3C)C(=O)N2c2ccc(Br)cc2)ccc1O (stereo not drawn) returns the recorded outcome of this test.
Reply: false

Task item: GET /call?item= OCCn1c(-c2ccc3c(c2)OCO3)csc1=Nc1ccccc1 returns the recorded outcome of this test.
Reply: false
